Attribution: PubChem BioAssay AID1919003

System: 786-0 complex spheroids with HUVEC/MSC, growth % test/control
test.name: Anticancer human tumor 786-0 cell line growth inhibition [AhR];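 also: compound exposure lasted seven days before the read-out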
test.context: second compound 3.16 µM; first compound 3.16 µM; stronger effect = lower value
property.label: viability, T/C (%)
# value in %; strip the unit string

# return recorded viability, T/C for entry Nc1ccn(C2OC(CO)C(O)C2(F)F)c(=O)n1 (stereo not drawn) + CC(CO)NC(=O)c1cc(-c2ccc(Cl)cc2)nn(-c2cnn(C)c2)c1=O 4.8

Hello, please tell me recorded viability, T/C for this one: Nc1ccn(C2OC(CO)C(O)C2(F)F)c(=O)n1 (stereo not drawn) + Cc1cncc(-c2nc(NCCc3c[nH]c4ccccc34)c3ncn(C(C)C)c3n2)c1 3.27

Determine its reported viability, T/C: NS(=O)(=O)OCC1CC(n2ccc3c(NC4CCc5ccccc54)ncnc32)CC1O (stereo not drawn) + Cc1cncc(-c2nc(NCCc3c[nH]c4ccccc34)c3ncn(C(C)C)c3n2)c1 3.65
